src = a melting point compilation (Tetko et al.; mined from patent text by program, amines drawn as free bases though some values may be those of a salt)

Measured metric: melting point

// solved cases for melting point follow
>>> print(df.to_string())
                                   compound  endpoint_result
0  Cc1cc(O)ccc1-c1c(C=O)sc(-c2ccc(O)cc2)c1C    244 to 247 °C
1  CCCCCCc1ccc(-n2c(-c3ccc(CC(=O)O)cc3)ccc2-c2ccc(CC(=O)O)cc2)cc1    129 to 130 °C
2  CC(C)(C)OC(=O)CN(Cc1ccccc1)S(=O)(=O)c1ccc2c(Cl)cnc(Cl)c2c1    134 to 136 °C

Given the compound COc1cc2oc(=O)c(CCCl)c(C)c2cc1O , what is its reported melting point?
230 to 235 °C

CC(C)(C)c1ccc([PH](=O)c2ccc(C(C)(C)C)cc2)cc1 , same question.
142 °C

What would you report for CCOC(=O)COc1ccc(C(=O)Nc2cccc(Cl)c2Cl)cc1 ?
126 to 129 °C
